System: HUVEC
Assay: Percentage tube formation inhibition against human umbilical vein endothelial cells(HUVEC) at a concentration of 5 ug/mL
Assay type: functional
assay.metric: inhibition at 5 µg/mL

Solved entries (count: 2):
# molecule.smiles, target.or.test.system, inhibition at 5 µg/mL
data = [
    ("COc1cc(/C=C/C(=O)c2cccc(NC(=O)c3ccc(Cl)cc3Cl)c2)ccc1O", "HUVEC", "51%"),
    ("COc1cc(/C=C/C(=O)c2cccc(NC(=O)c3c(Cl)cccc3Cl)c2)ccc1O", "HUVEC", "88%"),
]

// each listed compound needs a value for inhibition at 5 µg/mL
1. COc1cc(/C=C/C(=O)c2cccc(NC(C)=O)c2)ccc1O
2. COc1cc(/C=C/C(=O)c2cccc(NC(=O)c3ccc(Cl)c(Cl)c3)c2)ccc1O
3. COc1cc(/C=C/C(=O)c2cccc(NC(=O)c3cc(Cl)cc(Cl)c3)c2)ccc1O
4. COc1cc(/C=C/C(=O)c2cccc(N)c2)ccc1O
5. COC(=O)C(=O)Nc1cccc(C(=O)/C=C/c2ccc(O)c(OC)c2)c1
6. COc1cc(/C=C/C(=O)c2cccc(NC(=O)C(C)C)c2)ccc1O

Return:
["15%", "5%", "51%", "50%", "20%", "51%"]

// each listed compound needs a value for inhibition at 5 µg/mL
1. CCCC(=O)Nc1cccc(C(=O)/C=C/c2ccc(O)c(OC)c2)c1
2. COc1cc(/C=C/C(=O)c2cccc(NC(=O)c3cccs3)c2)ccc1O
3. COc1cc(/C=C/C(=O)c2cccc(NC(=O)c3ccco3)c2)ccc1O
4. CCOC(=O)C(=O)Nc1cccc(C(=O)/C=C/c2ccc(O)c(OC)c2)c1

Return:
1. 57%
2. 80%
3. 82%
4. 45%

// each listed compound needs a value for inhibition at 5 µg/mL
1. COc1cc(/C=C/C(=O)c2cccc(NC(=O)c3ccc(Cl)cc3)c2)ccc1O
2. COc1cc(/C=C/C(=O)c2cccc(NC(=O)c3ccccc3)c2)ccc1O

Return:
1: 42%; 2: 48%

====

Kindly supply the reported IC50 values for the records listed here.
Test system: Vero
Assay: Inhibitory concentration for cytotoxic activity against Vero cell line
Type: functional, cell-based
Details: Chlorocebus sabaeus
One number for each entry, in µg/mL.

# molecule.smiles, IC50, µg/mL
measured = [
    ("COc1cc(/C=C/C(=O)c2cccc(NC(=O)c3ccc(Cl)cc3Cl)c2)ccc1O", 27.2),
    ("COc1cc(/C=C/C(=O)c2cccc(NC(=O)C(C)C)c2)ccc1O", 3.47),
    ("COC(=O)C(=O)Nc1cccc(C(=O)/C=C/c2ccc(O)c(OC)c2)c1", 3.55),
    ("COc1cc(/C=C/C(=O)c2cccc(NC(=O)c3c(Cl)cccc3Cl)c2)ccc1O", 2.48),
]

// each listed molecule needs a value for IC50
1. COc1cc(/C=C/C(=O)c2cccc(N)c2)ccc1O
2. COc1cc(/C=C/C(=O)c2cccc(NC(=O)c3ccco3)c2)ccc1O

Return:
[6.02, 3.11]

// each listed molecule needs a value for IC50
1. CCCC(=O)Nc1cccc(C(=O)/C=C/c2ccc(O)c(OC)c2)c1
2. COc1cc(/C=C/C(=O)c2cccc(NC(=O)c3cccs3)c2)ccc1O

Return:
1: 2.04; 2: 3.98

// each listed molecule needs a value for IC50
1. COc1cc(/C=C/C(=O)c2cccc(NC(=O)c3ccccc3)c2)ccc1O
2. COc1cc(/C=C/C(=O)c2cccc(NC(C)=O)c2)ccc1O
3. COc1cc(/C=C/C(=O)c2cccc(NC(=O)c3ccc(Cl)cc3)c2)ccc1O

Return:
[3.47, 14.5, 3.82]
